- Tested on: NCI-H460 lung
- Experiment: NCI-60 one-dose screen, 48 h
- Experimental context: 10 µM unless noted
Compounds without any hit were thinned out: in the full panel of roughly 83,000, 20% have a hit. Calls of active or inactive are those of the source. The calls were made as follows: active = growth percent below 10; inactive = the rest.
Labels: active, inactive

1. CC(C)n1c2ccc(Br)cc2c2c3c(c4c5ccccc5ccc4c21)C(=O)NC3=O :: inactive
2. N#Cc1ccc(O)c(C2=NCC(c3ccc(-c4ccccc4)cc3)O2)c1 (centres undefined) :: active
3. Cn1c2ccccc2c2c3c(c4c5cc(Br)ccc5n(C)c4c21)C(=O)N(O)C3=O :: active
4. N#Cc1ccc(/C=C/c2cn(-c3ccccc3)nc2-c2cccc([N+](=O)[O-])c2)cc1 :: inactive
5. COC(=O)c1ccc2c(c1)c1c(C)c3cnccc3c(C)c1n2C :: active
6. COc1cc(-c2ccc[nH]2)[nH]c1/C=C1\N=C(C)C(CC(=O)OCC(C)(C)C)=C1C :: active
7. CCOC(=O)C/C(=N\Nc1cc(=O)[nH]c2ccc(OC)cc12)C(=O)OCC :: inactive
8. O=Nc1ccc(NC(=O)Nc2ccc([N+](=O)[O-])cc2)cc1 :: inactive
9. CC(=O)Nc1sc2c(c1-c1nc3ccccc3s1)CNC2 :: active
10. C[C@@H]1CN(c2cnc(C(=O)Nc3cc(F)cc4cccnc34)cn2)C[C@H](C)N1 :: inactive
11. O=c1oc2ccccc2cc1-c1nn(-c2ccccc2)cc1-c1nn[nH]n1 :: inactive
12. CCCCC#Cc1c(I)n(C2OC(CO[Si](C)(C)C(C)(C)C)C3OC(C)(C)OC32)c(=O)n(C(=O)c2ccccc2)c1=O (centres undefined) :: inactive
13. NS(=O)(=O)c1ccc(C(=O)NN2C(=O)c3ccccc3C2=O)cc1 :: inactive
14. CN(C)Cc1ccc(NC(=O)c2cncc(C#Cc3cnc(N)c4ncccc34)c2)cc1C(F)(F)F :: inactive
15. Cc1ccc(S(=O)(=O)c2nc(-c3ccccc3)oc2SCC(N)=O)cc1 :: inactive
16. COC(=O)c1c2c(c[n+]([O-])c1C)C(=O)C=C(NCc1ccccc1)C2=O :: active
17. CCCCn1c(NC(C)=O)c(S(=O)(=O)c2ccccc2)c2nc3ccccc3nc21 :: inactive
18. CN1CC(c2ccc(Br)cc2)C(C(=O)c2ccc(Br)cc2)C12C(=O)Nc1ccccc12 (centres undefined) :: inactive
19. COC(=O)/C=C1/SC(=Nc2ccc(F)cc2)N(CCc2c[nH]c3ccc(O)cc23)C1=O :: inactive
20. N#Cc1nn(-c2cc(=O)[nH]c3ccc(Br)cc23)c(N)c1C#N :: inactive
21. CCN1C2CCC1/C(=C\c1ccccc1)C(=O)/C2=C/c1ccccc1 :: inactive
22. CC(=O)O[C@H]1CC[C@]2(C)[C@H]3CC=C4[C@@H]5CC(C)(C)CC[C@]5(C(=O)N5CCN(CCC#N)CC5)CC[C@@]4(C)[C@]3(C)CC[C@H]2C1(C)C :: active
23. COc1cccc(CNc2c3ccccc3nc3ccccc23)c1OC :: inactive
24. Clc1ccc2nn3c4ccccc4c(OCCN4CCOCC4)nc3c2c1 :: inactive
25. O=S(=O)(Nc1cc(Sc2nc3ccccc3s2)c(O)c2ccccc12)c1ccc2ccccc2c1 :: inactive
26. CC1(C)CC(=O)C2=C(C1)C(c1ccc(Cl)cc1)n1ncc(C#N)c1N2 (centres undefined) :: inactive
27. Cc1nn(C)c2ncnc(N/N=C/c3cccc(O)c3O)c12 :: active
28. Nc1nc2ccccc2c2c(=O)c3cc(Cl)ccc3sc12 :: inactive
29. COc1c2c(cc3c1C(=O)N[C@@H]1[C@@H](O)[C@@H](O)[C@H](O)C[C@@H]31)OCCO2 :: inactive
30. CN1C(=O)N2CN3CCCN(C3)CN3C(=S)NC1C23 (centres undefined) :: inactive
31. O=C(/C=C/c1ccccc1Cl)c1cccc(OCCCCOc2cccc(C(=O)/C=C/c3ccccc3Cl)c2)c1 :: inactive
32. Cc1nc2sc(C(=O)Nc3cccc4ccccc34)c(N)c2cc1C(=O)c1ccccc1 :: active
33. CC(C)c1ccc2c(c1)CC[C@H]1[C@](C)(C(=O)OCC#CCN3CCCC3)CCC[C@]21C :: inactive
34. C=C[C@@]1(C)CC(=O)[C@@H](C(C)(C)c2cn(C)c3ccc(Br)cc23)C[C@@H]1O[Si](C)(C)C(C)(C)C :: inactive
35. O=C1C=C(SCCO)C(=O)c2ccccc21 :: active
36. O=C1NC(=O)C(c2coc3cc(Br)ccc23)=C1c1c[nH]c2ccccc12 :: inactive
37. COc1cc2ncnc(Nc3ccc(S(=O)(=O)Nc4nccs4)cc3)c2cc1OCCCN1CCCC1 :: inactive
38. CNC(=O)NCC1OC(n2cnc3c(NC(=O)Nc4ccccc4)ncnc32)C2OC(=O)CC12 (centres undefined) :: inactive
39. CC1(C)CC[C@]23CC[C@]4(C)[C@H](CC[C@@H]5[C@@]6(C)C/C(=C/O)C(=O)C(C)(C)[C@@H]6CC[C@]54C)[C@H]2[C@H]1OC3 :: inactive
